details: in isopropanol, 278.15 K
quantity: solubility (mole fraction)
Lab note: jot down the number only; don't add units.

Look up and report measured solubility (mole fraction) for this entry: COc1cc2nc(Cl)nc(N)c2cc1OC
0.000173

----------
details: in n-butanol, 273.15 K
quantity: solubility (mole fraction)
Lab note: jot down the number only; don't add units.

Look up and report measured solubility (mole fraction) for this entry: COc1cc2nc(Cl)nc(N)c2cc1OC
0.000252

----------
details: in NMP, 278.15 K
quantity: solubility (mole fraction)
Lab note: jot down the number only; don't add units.

Look up and report measured solubility (mole fraction) for this entry: COc1cc2nc(Cl)nc(N)c2cc1OC
0.00648

----------
details: in isobutanol, 303.15 K
quantity: solubility (mole fraction)

Look up and report measured solubility (mole fraction) for this entry: COc1cc2nc(Cl)nc(N)c2cc1OC
0.000601

----------
details: in isopropanol, 313.15 K
quantity: solubility (mole fraction)
Lab note: jot down the number only; don't add units.

Look up and report measured solubility (mole fraction) for this entry: COc1cc2nc(Cl)nc(N)c2cc1OC
0.000622

----------
details: in methanol, 303.15 K
quantity: solubility (mole fraction)
Lab note: jot down the number only; don't add units.

Look up and report measured solubility (mole fraction) for this entry: COc1cc2nc(Cl)nc(N)c2cc1OC
0.000378

----------
details: in n-butanol, 313.15 K
quantity: solubility (mole fraction)
Lab note: jot down the number only; don't add units.

Look up and report measured solubility (mole fraction) for this entry: COc1cc2nc(Cl)nc(N)c2cc1OC
0.000929

----------
details: in ethyl acetate, 313.15 K
quantity: solubility (mole fraction)
Lab note: jot down the number only; don't add units.

Look up and report measured solubility (mole fraction) for this entry: COc1cc2nc(Cl)nc(N)c2cc1OC
0.00101

----------
details: in 1,4-dioxane, 313.15 K
quantity: solubility (mole fraction)
Lab note: jot down the number only; don't add units.

Look up and report measured solubility (mole fraction) for this entry: COc1cc2nc(Cl)nc(N)c2cc1OC
0.000253

----------
details: in NMP, 313.15 K
quantity: solubility (mole fraction)

Look up and report measured solubility (mole fraction) for this entry: COc1cc2nc(Cl)nc(N)c2cc1OC
0.0137

----------
details: in DMF, 293.15 K
quantity: solubility (mole fraction)

Look up and report measured solubility (mole fraction) for this entry: COc1cc2nc(Cl)nc(N)c2cc1OC
0.00586

----------
details: in NMP, 298.15 K
quantity: solubility (mole fraction)
Lab note: jot down the number only; don't add units.

Look up and report measured solubility (mole fraction) for this entry: COc1cc2nc(Cl)nc(N)c2cc1OC
0.0103

----------
details: in ethanol, 278.15 K
quantity: solubility (mole fraction)
Lab note: jot down the number only; don't add units.

Look up and report measured solubility (mole fraction) for this entry: COc1cc2nc(Cl)nc(N)c2cc1OC
0.000206

----------
details: in toluene, 303.15 K
quantity: solubility (mole fraction)
Lab note: jot down the number only; don't add units.

Look up and report measured solubility (mole fraction) for this entry: COc1cc2nc(Cl)nc(N)c2cc1OC
1.26e-05

----------
details: in n-propanol, 288.15 K
quantity: solubility (mole fraction)
Lab note: jot down the number only; don't add units.

Look up and report measured solubility (mole fraction) for this entry: COc1cc2nc(Cl)nc(N)c2cc1OC
0.000343

----------
details: in DMF, 273.15 K
quantity: solubility (mole fraction)
Lab note: jot down the number only; don't add units.

Look up and report measured solubility (mole fraction) for this entry: COc1cc2nc(Cl)nc(N)c2cc1OC
0.00286

----------
details: in n-propanol, 313.15 K
quantity: solubility (mole fraction)
Lab note: jot down the number only; don't add units.

Look up and report measured solubility (mole fraction) for this entry: COc1cc2nc(Cl)nc(N)c2cc1OC
0.000769

----------
details: in 1,4-dioxane, 303.15 K
quantity: solubility (mole fraction)
Lab note: jot down the number only; don't add units.

Look up and report measured solubility (mole fraction) for this entry: COc1cc2nc(Cl)nc(N)c2cc1OC
0.000183

----------
details: in ethanol, 298.15 K
quantity: solubility (mole fraction)
Lab note: jot down the number only; don't add units.

Look up and report measured solubility (mole fraction) for this entry: COc1cc2nc(Cl)nc(N)c2cc1OC
0.000423

----------
details: in ethyl acetate, 298.15 K
quantity: solubility (mole fraction)
Lab note: jot down the number only; don't add units.

Look up and report measured solubility (mole fraction) for this entry: COc1cc2nc(Cl)nc(N)c2cc1OC
0.000618

----------
details: in isobutanol, 313.15 K
quantity: solubility (mole fraction)
Lab note: jot down the number only; don't add units.

Look up and report measured solubility (mole fraction) for this entry: COc1cc2nc(Cl)nc(N)c2cc1OC
0.000841

----------
details: in DMF, 288.15 K
quantity: solubility (mole fraction)

Look up and report measured solubility (mole fraction) for this entry: COc1cc2nc(Cl)nc(N)c2cc1OC
0.00495

----------
details: in ethyl acetate, 308.15 K
quantity: solubility (mole fraction)
Lab note: jot down the number only; don't add units.

Look up and report measured solubility (mole fraction) for this entry: COc1cc2nc(Cl)nc(N)c2cc1OC
0.000853

----------
details: in DMF, 278.15 K
quantity: solubility (mole fraction)
Lab note: jot down the number only; don't add units.

Look up and report measured solubility (mole fraction) for this entry: COc1cc2nc(Cl)nc(N)c2cc1OC
0.00336

----------
details: in methanol, 313.15 K
quantity: solubility (mole fraction)
Lab note: jot down the number only; don't add units.

Look up and report measured solubility (mole fraction) for this entry: COc1cc2nc(Cl)nc(N)c2cc1OC
0.000544

----------
details: in n-butanol, 293.15 K
quantity: solubility (mole fraction)
Lab note: jot down the number only; don't add units.

Look up and report measured solubility (mole fraction) for this entry: COc1cc2nc(Cl)nc(N)c2cc1OC
0.000467

----------
details: in ethanol, 313.15 K
quantity: solubility (mole fraction)
Lab note: jot down the number only; don't add units.

Look up and report measured solubility (mole fraction) for this entry: COc1cc2nc(Cl)nc(N)c2cc1OC
0.000693

----------
details: in DMF, 298.15 K
quantity: solubility (mole fraction)
Lab note: jot down the number only; don't add units.

Look up and report measured solubility (mole fraction) for this entry: COc1cc2nc(Cl)nc(N)c2cc1OC
0.00687

----------
details: in DMF, 283.15 K
quantity: solubility (mole fraction)
Lab note: jot down the number only; don't add units.

Look up and report measured solubility (mole fraction) for this entry: COc1cc2nc(Cl)nc(N)c2cc1OC
0.00405

----------
details: in n-propanol, 278.15 K
quantity: solubility (mole fraction)
Lab note: jot down the number only; don't add units.

Look up and report measured solubility (mole fraction) for this entry: COc1cc2nc(Cl)nc(N)c2cc1OC
0.000245

----------
details: in n-butanol, 298.15 K
quantity: solubility (mole fraction)

Look up and report measured solubility (mole fraction) for this entry: COc1cc2nc(Cl)nc(N)c2cc1OC
0.000548
